assay: Volume of distribution at steady state in iv dosed mouse
Format: ADME, organism-based
condition set: in vivo, read-out: Vdss
The following molecules are shown together with reported Vd values.
Form field: result (number plus unit)

test smiles: CN1CCC(NC(=O)c2ccc(-c3ccc(-n4c(=O)ccc5cnc6ccc(-c7cnc8ccccc8c7)cc6c54)cc3C(F)(F)F)cc2)CC1
val: 1.95 L/kg

The recorded Vd for entry `Cc1cc(-n2c(=O)ccc3cnc4ccc(-c5cnc6ccccc6c5)cc4c32)ccc1-c1ccc(C(=O)NC2CCN(C)CC2)cc1` equals 1.82 L/kg

====

assay: Cmax in po dosed mouse
Assay type: ADME, organism-based
Parameters: route oral
condition set: in vivo
recorded metric: Cmax
Form field: result (number plus unit)

test smiles: CN1CCC(NC(=O)c2ccc(-c3ccc(-n4c(=O)ccc5cnc6ccc(-c7cnc8ccccc8c7)cc6c54)cc3C(F)(F)F)cc2)CC1
val: 191 ng/mL

Okay, now this compound:
The recorded Cmax for entry `Cc1cc(-n2c(=O)ccc3cnc4ccc(-c5cnc6ccccc6c5)cc4c32)ccc1-c1ccc(C(=O)NC2CCN(C)CC2)cc1` equals 115 ng/mL

====

assayed system: Serine/threonine-protein kinase mTOR (Mus musculus, UniProt Q9JLN9)
assay: Inhibition of mTOR-dependent S6K phosphorylation at T389 residue in MEF cells
The following molecules are shown together with reported pEC50 values.
Scale note: pEC50 = -log10(concentration in M).

See these solved cases before continuing.
molecule: Cc1cc(-n2c(=O)ccc3cnc4ccc(-c5cnn(C)c5)cc4c32)ccc1-c1ccc(C(=O)NC2CCN(C)CC2)cc1
pEC50: 6.82
--
molecule: Cc1cc(-n2c(=O)ccc3cnc4ccc(-c5cn[nH]c5)cc4c32)ccc1-c1ccc(C(=O)NC2CCN(C)CC2)cc1
pEC50: 6.82
--
molecule: O=C(O)c1ccc(-c2ccc(-n3c(=O)ccc4cnc5ccc(-c6cnc7ccccc7c6)cc5c43)cc2C(F)(F)F)cc1
pEC50: 7.70
--
molecule: O=c1ccc2cnc3ccc(-c4cnc5ccccc5c4)cc3c2n1-c1ccc(-c2ccc(COC3CCCCO3)cc2)c(C(F)(F)F)c1 (stereo not drawn)
pEC50: 7.60
--
molecule: CN1CCC(NC(=O)c2ccc(-c3ccc(-n4c(=O)ccc5cnc6ccc(-c7cn[nH]c7)cc6c54)cc3C(F)(F)F)cc2)CC1
pEC50: 8.00
--
molecule: Cc1cc(-n2c(=O)ccc3cnc4ccc(-c5ccc(N)nc5)cc4c32)ccc1-c1ccc(C(=O)NC2CCN(C)CC2)cc1
pEC50: 7.30

Okay, now this molecule:
The recorded pEC50 for entry `CNC(=O)c1ccc(-c2ccc(-n3c(=O)ccc4cnc5ccc(-c6cnc7ccccc7c6)cc5c43)cc2C(F)(F)F)cc1` equals 7.82

====

The following compounds are shown together with reported AUC(0-inf) values.
assay: AUC (0 to infinity) in po dosed mouse
Type: ADME, organism-based
Set-up: route oral, time infinity
condition set: plasma
# value in ng·h/mL; strip the unit string

The recorded AUC(0-inf) for entry `Cc1cc(-n2c(=O)ccc3cnc4ccc(-c5cnc6ccccc6c5)cc4c32)ccc1-c1ccc(C(=O)NC2CCN(C)CC2)cc1` equals 391

The recorded AUC(0-inf) for entry `CCC(=O)N1CCN(c2ccc(-n3c(=O)ccc4cnc5ccc(-c6cnc7ccccc7c6)cc5c43)cc2C(F)(F)F)CC1` equals 396

The recorded AUC(0-inf) for entry `CN1CCC(NC(=O)c2ccc(-c3ccc(-n4c(=O)ccc5cnc6ccc(-c7cnc8ccccc8c7)cc6c54)cc3C(F)(F)F)cc2)CC1` equals 1410
